The following are reported pKi results, target or system hMC5-R (Homo sapiens).
Non-standard residues stand in square brackets, D forms with d. Residues, ends and D or L forms follow the SMILES beside them. *: point of attachment. dPhe(4-Cl) = N[C@H](Cc1ccc(Cl)cc1)C(=O)O; d2Nal = N[C@H](Cc1ccc2ccccc2c1)C(=O)O; Ahp = NCCCCCCC(=O)O; Bn = c1ccc(C*)cc1
Value format note: pKi is -log10 of concentration (mol/L); just state the number.

# Molecule, pKi
rows = [
    ("C[C@H](NC(=O)[C@H](Cc1c[nH]c2ccccc12)NC(=O)[C@H](CCCNC(=N)N)NC(=O)[C@@H](Cc1ccc(Cl)cc1)NC(=O)[C@H](COCc1ccccc1)NC(=O)CCCCCCN)C(N)=O (H-[Ahp]S(Bn)[dPhe(4-Cl)]RWA-NH2)", 6.95),
    ("N=C(N)NCCC[C@H](NC(=O)[C@@H](Cc1ccc2ccccc2c1)NC(=O)[C@H](COCc1ccccc1)NC(=O)CCCCCCN)C(=O)N[C@H](Cc1c[nH]c2ccccc12)C(N)=O (H-[Ahp]S(Bn)[d2Nal]R[dW]-NH2)", 7.05),
    ("N=C(N)NCCC[C@H](NC(=O)[C@@H](Cc1ccc(Cl)cc1)NC(=O)[C@H](COCc1ccccc1)NC(=O)CCCCCCN)C(=O)N[C@@H](Cc1c[nH]c2ccccc12)C(=O)N[C@@H](CC(=O)O)C(N)=O (H-[Ahp]S(Bn)[dPhe(4-Cl)]RWD-NH2)", 6.22),
    ("N=C(N)NCCC[C@H](NC(=O)[C@@H](Cc1ccc(Cl)cc1)NC(=O)[C@H](COCc1ccccc1)NC(=O)CCCCCCN)C(=O)N[C@@H](Cc1c[nH]c2ccccc12)C(=O)N[C@@H](CC(=O)O)C(=O)N[C@@H](Cc1ccccc1)C(N)=O (H-[Ahp]S(Bn)[dPhe(4-Cl)]RWDF-NH2)", 6.41),
]

Problem: # lookup: pKi of N=C(N)NCCC[C@H](NC(=O)[C@@H](Cc1ccc2ccccc2c1)NC(=O)[C@H](COCc1ccccc1)NC(=O)CCCCCCN)C(=O)N[C@@H](Cc1c[nH]c2ccccc12)C(N)=O (H-[Ahp]S(Bn)[d2Nal]RW-NH2)
Result: 6.99
